- Tested on: primary ALL blast cells
- Test: Ex-vivo viability of primary leukemia cells (trypan blue dye exclusion)
- Assay type: cell-based, human
- Study conditions: primary blast cells, 21 % (3/14) of cases, 24 h; read-out: IC50 at 24 h, poor responders
pIC50: −log10 of the molar value.
Parameter: pIC50

                                   molecule  parameter  result_value
0  Cn1cc(-c2[nH]c3cc(NC(=O)[C@H](N)C4CCCCC4)cc4c3c2C=NNC4=O)cn1 [PF-00477736]      pIC50        < 6.00

----------
- Tested on: NALM-6 (B-ALL) cells
- Test: Cell viability assay (WST-1)
- Assay type: cell-based, human
- Study conditions: NALM-6, 24 h exposure, TP53 wild-type
pIC50: −log10 of the molar value.
Parameter: pIC50

>>> df
                         structure_notation         system_tested  parameter  result_value
0  Cn1cc(-c2[nH]c3cc(NC(=O)[C@H](N)C4CCCCC4)cc4c3c2C=NNC4=O)cn1  NALM-6 (B-ALL) cells      pIC50          5.85
